# assay.system: CTX-M-14 K234R β-lactamase (Escherichia coli, UniProt Q9L5C7, K237R)
# Construct: His6 (TEV-cleavable) (N, cleaved yes); made in house; host or cells: E. coli BL21(DE3), pET28a-CTX-M-14 with K234R
# measurement.protocol: Steady-state kinetics of β-lactam hydrolysis, K234R enzyme
# Format: biochemical
# applied.conditions: K234R compared with WT
# Description: Michaelis–Menten steady-state kinetic parameters of CTX-M-14 β-lactamases were determined on various β-lactam substrates. […] Substrate hydrolysis was monitored by Beckman Coulter spectrophotometer model DU 800 (Beckman Coulter, Brea, CA, USA). […] The kcat/Km values for the enzymes where kcat and Km could not be determined independently were estimated using the equation, ν = (kcat/Km)[E][S], where [S] ≪ Km ([54]).

[
  {
    "item.smiles": "CO/N=C(\\C(=O)N[C@@H]1C(=O)N2C(C(=O)O)=CCS[C@H]12)c1csc(N)n1",
    "fold decrease in kcat/Km / fold": 40
  },
  {
    "item.smiles": "CO/N=C(\\C(=O)N[C@@H]1C(=O)N2C(C(=O)O)=C(COC(C)=O)CS[C@H]12)c1csc(N)n1",
    "fold decrease in kcat/Km / fold": 80
  },
  {
    "item.smiles": "COCC1=C(C(=O)O)N2C(=O)[C@@H](NC(=O)/C(=N\\OC)c3csc(N)n3)[C@H]2SC1",
    "fold decrease in kcat/Km / fold": 50
  },
  {
    "item.smiles": "CO/N=C(\\C(=O)N[C@@H]1C(=O)N2C(C(=O)O)=C(CSc3nc(=O)c(=O)[nH]n3C)CS[C@H]12)c1csc(N)n1",
    "fold decrease in kcat/Km / fold": 170
  },
  {
    "item.smiles": "CC(=O)OCC1=C(C(=O)O)N2C(=O)[C@@H](NC(=O)Cc3cccs3)[C@H]2SC1",
    "fold decrease in kcat/Km / fold": 6
  }
]
